test system: LNCaP cells; assay: CellTiter-Glo cell viability assay, LNCaP; conditions: Homo sapiens, 72 h, read-out: cytotoxicity IC50
pIC50: −log10 of the molar value.
measurement_type: pIC50

- CC(C)c1cc(-c2nnc(O)n2-c2ccc3c(ccn3C)c2)c(O)cc1O: 8.10

###

system: PC3 cells; assay: CellTiter-Glo cell viability assay, PC3; conditions: read-out: cytotoxicity IC50; PC3, 72 h
pIC50: −log10 of the molar value.
measurement_type: pIC50

• C=CCNC1=C2C[C@@H](C)C[C@H](OC)[C@H](O)[C@@H](C)/C=C(\C)[C@H](OC(N)=O)[C@@H](OC)/C=C\C=C(/C)C(=O)NC(=CC1=O)C2=O [Compound 17-AAG, 17-AAG, reference compound] = 6.61
